system: Escherichia coli; assay: Antimicrobial activity against Escherichia coli K12; type: functional, organism-based
Active and inactive are the calls of the source. The calls are words filed in the database; no cut-off is given here.
observable: Activity

Example entries and their recorded answers appear below.
1. CCCNC(=O)N[C@@H](Cc1c[nH]c2ccccc12)C(=O)N[C@@H](CNC(=O)[C@@H](N)Cc1c[nH]c2ccccc12)C(=O)NC[C@H]1O[C@@H](n2ccc(=O)[nH]c2=O)[C@H](O)[C@@H]1O inactive
2. N[C@@H](Cc1c[nH]c2ccccc12)C(=O)NC[C@H](NC(=O)[C@H](Cc1c[nH]c2ccccc12)NC(=O)NCCc1ccccc1)C(=O)NC[C@H]1O[C@@H](n2ccc(=O)[nH]c2=O)[C@H](O)[C@@H]1O inactive
3. CC(=O)c1cccc(NC(=O)N[C@@H](Cc2c[nH]c3ccccc23)C(=O)N[C@@H](CNC(=O)[C@@H](N)CC(N)=O)C(=O)NC[C@H]2O[C@@H](n3ccc(=O)[nH]c3=O)[C@H](O)[C@@H]2O)c1 inactive
4. CC(=O)c1cccc(NC(=O)N[C@@H](Cc2c[nH]c3ccccc23)C(=O)N[C@@H](CNC(=O)[C@@H](N)Cc2c[nH]c3ccccc23)C(=O)NC[C@H]2O[C@@H](n3ccc(=O)[nH]c3=O)[C@H](O)[C@@H]2O)c1 inactive

### Prompt I'm curious: which Activity was measured for CCCCCCNC(=O)N[C@@H](Cc1c[nH]c2ccccc12)C(=O)N[C@@H](CNC(=O)[C@@H](N)Cc1c[nH]c2ccccc12)C(=O)NC[C@H]1O[C@@H](n2ccc(=O)[nH]c2=O)[C@H](O)[C@@H]1O tested on Escherichia coli?
### Response inactive

### Prompt Could you do the same for COc1ccc(NC(=O)N[C@@H](Cc2ccc(O)cc2)C(=O)N[C@@H](CNC(=O)[C@@H](N)Cc2ccc([N+](=O)[O-])cc2)C(=O)NC[C@H]2O[C@@H](n3ccc(=O)[nH]c3=O)[C@H](O)[C@@H]2O)cc1 , please?
### Response inactive

### Prompt Follow-up entry: CSCC[C@H](NC(=O)NCCc1ccccc1)C(=O)N[C@@H](CNC(=O)[C@@H](N)Cc1ccc([N+](=O)[O-])cc1)C(=O)NC[C@H]1O[C@@H](n2ccc(=O)[nH]c2=O)[C@H](O)[C@@H]1O
### Response inactive

### Prompt Param item: COc1ccc(NC(=O)N[C@@H](Cc2c[nH]c3ccccc23)C(=O)N[C@@H](CNC(=O)[C@@H](N)Cc2c[nH]c3ccccc23)C(=O)NC[C@H]2O[C@@H](n3ccc(=O)[nH]c3=O)[C@H](O)[C@@H]2O)cc1
### Response inactive

### Prompt CCCCCCNC(=O)N[C@@H](Cc1ccc(O)cc1)C(=O)N[C@@H](CNC(=O)[C@@H](N)Cc1c[nH]c2ccccc12)C(=O)NC[C@H]1O[C@@H](n2ccc(=O)[nH]c2=O)[C@H](O)[C@@H]1O ?
### Response inactive
